SYSTEM: human NaV 1.8 channels stably expressed in HEK 293 cells (Homo sapiens (Human), UniProt Q9Y5Y9)
Sequence (Q9Y5Y9 whole entry): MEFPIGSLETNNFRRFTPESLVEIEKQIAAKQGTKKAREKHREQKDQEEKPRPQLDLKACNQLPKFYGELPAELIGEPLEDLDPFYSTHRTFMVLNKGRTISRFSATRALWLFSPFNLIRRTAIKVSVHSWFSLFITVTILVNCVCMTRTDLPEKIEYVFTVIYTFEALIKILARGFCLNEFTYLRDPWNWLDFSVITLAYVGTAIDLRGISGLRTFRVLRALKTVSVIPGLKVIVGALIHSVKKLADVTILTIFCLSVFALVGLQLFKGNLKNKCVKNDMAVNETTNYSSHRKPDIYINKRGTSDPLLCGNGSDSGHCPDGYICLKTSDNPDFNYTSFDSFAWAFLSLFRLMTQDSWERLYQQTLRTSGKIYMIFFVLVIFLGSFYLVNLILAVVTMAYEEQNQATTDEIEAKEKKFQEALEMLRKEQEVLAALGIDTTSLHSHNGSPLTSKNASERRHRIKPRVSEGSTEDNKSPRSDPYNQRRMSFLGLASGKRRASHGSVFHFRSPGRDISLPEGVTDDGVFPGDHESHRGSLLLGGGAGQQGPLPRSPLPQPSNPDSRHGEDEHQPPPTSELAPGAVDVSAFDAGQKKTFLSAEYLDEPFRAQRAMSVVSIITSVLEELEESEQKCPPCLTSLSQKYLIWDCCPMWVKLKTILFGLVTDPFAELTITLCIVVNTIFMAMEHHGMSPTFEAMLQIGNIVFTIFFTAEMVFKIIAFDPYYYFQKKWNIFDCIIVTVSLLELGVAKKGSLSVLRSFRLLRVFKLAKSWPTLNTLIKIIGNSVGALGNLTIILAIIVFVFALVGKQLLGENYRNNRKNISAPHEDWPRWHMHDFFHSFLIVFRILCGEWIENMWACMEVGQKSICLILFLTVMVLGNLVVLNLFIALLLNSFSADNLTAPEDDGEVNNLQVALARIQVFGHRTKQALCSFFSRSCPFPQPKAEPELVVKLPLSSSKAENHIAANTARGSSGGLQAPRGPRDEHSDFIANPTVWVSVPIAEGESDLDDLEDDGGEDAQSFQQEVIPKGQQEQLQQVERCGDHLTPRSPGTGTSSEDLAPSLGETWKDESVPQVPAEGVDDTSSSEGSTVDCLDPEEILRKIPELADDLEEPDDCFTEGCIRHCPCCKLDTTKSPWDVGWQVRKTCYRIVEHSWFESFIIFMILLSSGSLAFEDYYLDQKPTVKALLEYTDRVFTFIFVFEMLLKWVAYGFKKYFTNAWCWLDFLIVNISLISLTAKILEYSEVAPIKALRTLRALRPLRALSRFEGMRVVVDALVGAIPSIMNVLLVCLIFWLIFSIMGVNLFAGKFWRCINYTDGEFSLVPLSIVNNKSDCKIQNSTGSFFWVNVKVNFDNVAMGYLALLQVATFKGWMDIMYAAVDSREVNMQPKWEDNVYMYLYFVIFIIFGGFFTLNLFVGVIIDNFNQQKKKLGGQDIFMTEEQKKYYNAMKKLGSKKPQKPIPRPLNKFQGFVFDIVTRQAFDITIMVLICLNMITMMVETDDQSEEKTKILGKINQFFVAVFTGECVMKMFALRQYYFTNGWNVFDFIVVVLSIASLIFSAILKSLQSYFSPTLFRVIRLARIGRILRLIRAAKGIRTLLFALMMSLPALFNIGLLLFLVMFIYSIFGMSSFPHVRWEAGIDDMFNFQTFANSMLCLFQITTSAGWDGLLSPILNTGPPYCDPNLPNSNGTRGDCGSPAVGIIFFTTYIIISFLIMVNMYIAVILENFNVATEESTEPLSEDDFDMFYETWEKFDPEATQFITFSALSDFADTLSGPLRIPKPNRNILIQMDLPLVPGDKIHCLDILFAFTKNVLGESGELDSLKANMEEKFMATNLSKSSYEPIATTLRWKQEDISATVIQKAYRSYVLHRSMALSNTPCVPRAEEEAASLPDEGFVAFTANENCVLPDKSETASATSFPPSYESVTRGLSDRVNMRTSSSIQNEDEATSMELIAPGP
ASSAY INFO: Nav1.8 Qube automated patch-clamp assay
Type: cell-based
CONDITION CONTEXT: human NaV1.8 in HEK 293 cells, whole-cell voltage clamp, room temperature; read-out: IC50 values (nM) for Examples in the Nav1.8 Qube Assay
// values below are reported IC50
REPORTED METRIC: IC50 (nM)

[[record]]
compound = "C[C@@H]1C(=O)NCCN1C(=O)NC(c1ccc(F)c(Cl)c1)c1cc(C(F)(F)F)n[nH]1 (single isomer, unassigned) [Example 85B]"
endpoint_unit = "nM"
result_value = 5.47

[[record]]
compound = "C[C@@H]1C(=O)NCCN1C(=O)NC(c1cnc(C(F)(F)F)nc1)c1ccc(F)c(Cl)c1F (single isomer, unassigned) [Example 30A]"
endpoint_unit = "nM"
result_value = 506

[[record]]
compound = "C[C@@H]1C(=O)NCCN1C(=O)NC(c1ccc(Cl)c(F)c1)c1ccc(F)c(C(F)(F)F)n1 (single isomer, unassigned) [Example 53B]"
endpoint_unit = "nM"
result_value = 1.38

[[record]]
compound = "C[C@@H]1C(=O)NCCN1C(=O)NC(c1ccc(C#N)c(Cl)c1)c1cnc(C(F)(F)F)c(Cl)c1 (single isomer, unassigned) [Example 24B]"
endpoint_unit = "nM"
result_value = 2.84

[[record]]
compound = "C[C@@H]1C(=O)NCCN1C(=O)NC(c1ccc(OC(F)(F)F)nc1)c1ccc(F)c(Cl)c1F (single isomer, unassigned) [Example 4B]"
endpoint_unit = "nM"
result_value = 25.7

[[record]]
compound = "C[C@@H]1C(=O)NCCN1C(=O)NC(c1ccc(OCC(F)(F)F)nc1)c1cc(F)c(F)c(Cl)c1 (single isomer, unassigned) [Example 7A]"
endpoint_unit = "nM"
result_value = 10.8


* * *

SYSTEM: human NaV 1.8 channels stably expressed in HEK 293 cells (Homo sapiens (Human))
ASSAY INFO: Nav1.8 Qube automated patch-clamp assay
Type: cell-based
CONDITION CONTEXT: human NaV1.8 in HEK 293 cells, whole-cell voltage clamp, room temperature; read-out: IC50 values (nM) for Examples in the Nav1.8 Qube Assay
// values below are reported IC50
REPORTED METRIC: IC50

[[record]]
compound = "C[C@@H]1C(=O)NCCN1C(=O)NC(c1ccc(Cl)cc1)c1ccnc(C(F)(F)F)n1 (single isomer, unassigned) [Example 68B]"
system = "human NaV 1.8 channels stably expressed in HEK 293 cells (Homo sapiens (Human))"
reported_metric = "IC50"
result_value = "761 nM"

[[record]]
compound = "C[C@@H]1C(=O)NCCN1C(=O)NC(c1ccc(C(F)(F)F)nc1)c1ccc(Cl)c(Cl)c1 (single isomer, unassigned) [Example 18B]"
system = "human NaV 1.8 channels stably expressed in HEK 293 cells (Homo sapiens (Human))"
reported_metric = "IC50"
result_value = "4.69 nM"

[[record]]
compound = "C[C@@H]1C(=O)NCCN1C(=O)NC(c1ccc(C(F)(F)F)nc1)c1ccc(Cl)c(Cl)c1 (single isomer, unassigned) [Example 18A]"
system = "human NaV 1.8 channels stably expressed in HEK 293 cells (Homo sapiens (Human))"
reported_metric = "IC50"
result_value = "3.89 nM"


* * *

// values below are reported IC50
SYSTEM: human NaV 1.8 channels stably expressed in HEK 293 cells (Homo sapiens (Human), UniProt Q9Y5Y9)
ASSAY INFO: Nav1.8 Qube automated patch-clamp assay
Assay type: cell-based
CONDITION CONTEXT: human NaV1.8 in HEK 293 cells, whole-cell voltage clamp, room temperature; read-out: IC50 values (nM) for Examples in the Nav1.8 Qube Assay
REPORTED METRIC: IC50 (nM)

[[record]]
molecule = "C[C@@H]1C(=O)NCCN1C(=O)NC(c1ccc(Cl)cc1)c1ccnc(C(F)(F)F)n1 (single isomer, unassigned) [Example 68A]"
reported_metric = "IC50"
endpoint_unit = "nM"
result_value = 34.9

[[record]]
molecule = "C[C@@H]1C(=O)NCCN1C(=O)NC(c1ccc(C2CC2)nc1)c1ccc(F)c(Cl)c1F (single isomer, unassigned) [Example 33B]"
reported_metric = "IC50"
endpoint_unit = "nM"
result_value = 514

[[record]]
molecule = "C[C@@H]1C(=O)NCCN1C(=O)NC(c1ccc(OC(F)(F)F)c(Cl)c1)c1cnn(C(F)(F)F)c1 (single isomer, unassigned) [Example 63B]"
reported_metric = "IC50"
endpoint_unit = "nM"
result_value = 13.5

[[record]]
molecule = "O=C1CN(C(=O)NC(c2ccc(Cl)c(C(F)(F)F)n2)c2ccc(F)c(Cl)c2F)CCN1 (single isomer, unassigned) [Example 78B]"
reported_metric = "IC50"
endpoint_unit = "nM"
result_value = 3.54

[[record]]
molecule = "C[C@@H]1C(=O)NCCN1C(=O)NC(c1cnc(OCC(F)(F)F)s1)c1ccc(F)c(Cl)c1F (single isomer, unassigned) [Example 13B]"
reported_metric = "IC50"
endpoint_unit = "nM"
result_value = 9.42

[[record]]
molecule = "C[C@@H]1C(=O)NCCN1C(=O)NC(c1cnc(C(F)(F)F)nc1)c1ccc(Cl)c(Cl)c1 (single isomer, unassigned) [Example 28A]"
reported_metric = "IC50"
endpoint_unit = "nM"
result_value = 10.8

[[record]]
molecule = "C[C@@H]1C(=O)NCCN1C(=O)NC(c1cnc(OCC(F)(F)F)c(F)c1)c1ccc(F)c(C(F)(F)F)n1 (single isomer, unassigned) [Example 48A]"
reported_metric = "IC50"
endpoint_unit = "nM"
result_value = 4.78

[[record]]
molecule = "O=C1CN(C(=O)NC(c2ccc(OCC(F)(F)F)nc2)c2ccc(F)c(Cl)c2)CCN1 (single isomer, unassigned) [Example 2B]"
reported_metric = "IC50"
endpoint_unit = "nM"
result_value = 123

[[record]]
molecule = "C[C@@H]1C(=O)NCCN1C(=O)NC(c1ccc(OCC(F)(F)F)nc1)c1ccc(F)c(C(F)(F)F)n1 (single isomer, unassigned) [Example 50B]"
reported_metric = "IC50"
endpoint_unit = "nM"
result_value = 8.55

[[record]]
molecule = "C[C@@H]1C(=O)NCCN1C(=O)NC(c1ccc(C(F)(F)F)nc1)c1ccc(F)c(OC(F)(F)F)c1 (single isomer, unassigned) [Example 19A]"
reported_metric = "IC50"
endpoint_unit = "nM"
result_value = 41.1

[[record]]
molecule = "C[C@@H]1C(=O)NCCN1C(=O)NC(c1cnc(OC(F)F)s1)c1ccc(F)c(Cl)c1F (single isomer, unassigned) [Example 14B]"
reported_metric = "IC50"
endpoint_unit = "nM"
result_value = 101

[[record]]
molecule = "C[C@@H]1C(=O)NCCN1C(=O)NC(c1ccc(OCC(F)(F)F)nc1)c1ccc(F)c(F)c1 (single isomer, unassigned) [Example 6B]"
reported_metric = "IC50"
endpoint_unit = "nM"
result_value = 128


* * *

SYSTEM: human NaV 1.8 channels stably expressed in HEK 293 cells (Homo sapiens (Human), UniProt Q9Y5Y9)
ASSAY INFO: Nav1.8 Qube automated patch-clamp assay
Type: cell-based
CONDITION CONTEXT: human NaV1.8 in HEK 293 cells, whole-cell voltage clamp, room temperature; read-out: IC50 values (nM) for Examples in the Nav1.8 Qube Assay
API: label(entry) gives condition met if the entry's IC50 is strictly smaller than 30 nM; on equality or larger values it gives condition not met.

[[record]]
compound = "C[C@@H]1C(=O)NCCN1C(=O)NC(c1ccc(C(F)F)nc1)c1ccc(F)c(Cl)c1F (single isomer, unassigned) [Example 32A]"
class = "condition not met"

[[record]]
compound = "C[C@@H]1C(=O)NCCN1C(=O)NC(c1ccc(OC(F)(F)F)cc1)c1ccc(F)c(C(F)(F)F)n1 (single isomer, unassigned) [Example 55A]"
class = "condition met"

[[record]]
compound = "O=C1CN(C(=O)NC(c2ccc(OCC(F)(F)F)nc2)c2ccc(F)c(Cl)c2F)CCN1 (single isomer, unassigned) [Example 8A]"
class = "condition met"

[[record]]
compound = "C[C@@H]1C(=O)NCCN1C(=O)NC(c1ccc(OC2CC2)c(F)c1)c1cnc(C(F)(F)F)c(Cl)c1 (single isomer, unassigned) [Example 25A]"
class = "condition met"

[[record]]
compound = "C[C@@H]1C(=O)NCCN1C(=O)NC(c1ccc(F)c(Cl)c1)c1cccc(OC(F)F)n1 (single isomer, unassigned) [Example 72B]"
class = "condition met"

[[record]]
compound = "C[C@@H]1C(=O)NCCN1C(=O)NC(c1cnc(OCC(F)(F)F)c(F)c1)c1ccc(F)c(Cl)c1F (single isomer, unassigned) [Example 10B]"
class = "condition met"

[[record]]
compound = "C[C@@H]1C(=O)NCCN1C(=O)NC(c1cnc(C(F)(F)F)c(Cl)c1)c1ccc(Cl)c(C(F)(F)F)n1 (single isomer, unassigned) [Example 83A]"
class = "condition met"

[[record]]
compound = "C[C@H]1C(=O)NCCN1C(=O)NC(c1ccc(F)c(Cl)c1)c1cccc(C(F)(F)F)n1 (single isomer, unassigned) [Example 45]"
class = "condition not met"

[[record]]
compound = "C[C@@H]1C(=O)NCCN1C(=O)NC(c1ccc(C(F)(F)F)nc1)c1ccc(Cl)c(C(F)(F)F)n1 (single isomer, unassigned) [Example 81A]"
class = "condition met"

[[record]]
compound = "C[C@@H]1C(=O)NCCN1C(=O)NC(c1cnc(C(F)(F)F)c(Cl)c1)c1ccc(Cl)c(C(F)(F)F)n1 (single isomer, unassigned) [Example 83B]"
class = "condition met"

[[record]]
compound = "CCC1C(=O)NCCN1C(=O)NC(c1ccc(C(F)(F)F)nc1)c1ccc(F)c(Cl)c1F (single isomer, unassigned) [Example 40B]"
class = "condition met"

[[record]]
compound = "C[C@@H]1C(=O)NCCN1C(=O)NC(c1ccc(C(C)(F)F)nc1)c1ccc(F)c(Cl)c1F (single isomer, unassigned) [Example 75A]"
class = "condition not met"

[[record]]
compound = "C[C@@H]1C(=O)NCCN1C(=O)NC(c1ccc(Cl)cc1)c1cccc(C(F)(F)F)n1 (single isomer, unassigned) [Example 9A]"
class = "condition not met"

[[record]]
compound = "C[C@@H]1C(=O)NCCN1C(=O)NC(c1ccc(OC(F)(F)F)cc1)c1cnc(C(F)(F)F)c(Cl)c1 (single isomer, unassigned) [Example 20A]"
class = "condition met"

[[record]]
compound = "C[C@@H]1C(=O)NCCN1C(=O)NC(c1ccc(Cl)cc1)c1ccc(C(F)(F)F)nc1 (single isomer, unassigned) [Example 17B]"
class = "condition not met"

[[record]]
compound = "C[C@@H]1C(=O)NCCN1C(=O)NC(c1ccc(OC(F)F)nc1)c1ccc(F)c(Cl)c1F (single isomer, unassigned) [Example 31A]"
class = "condition met"

[[record]]
compound = "O=C1NCCN(C(=O)NC(c2ccc(C(F)(F)F)nc2)c2ccc(F)c(Cl)c2F)C1C1CC1 (single isomer, unassigned) [Example 38B]"
class = "condition met"

[[record]]
compound = "O=C1CN(C(=O)NC(c2ccc(Cl)c(C(F)(F)F)n2)c2ccc(F)c(Cl)c2F)CCN1 (single isomer, unassigned) [Example 78A]"
class = "condition met"

[[record]]
compound = "O=C1CN(C(=O)NC(c2ccc(F)c(Cl)c2)c2cccc(C(F)(F)F)n2)[C@@H](CF)CN1 (single isomer, unassigned) [Example 47A]"
class = "condition not met"

[[record]]
compound = "C[C@@H]1C(=O)NCCN1C(=O)NC(c1cnc(C(F)(F)F)c(Cl)c1)c1csc(C(F)(F)F)n1 (single isomer, unassigned) [Example 84B]"
class = "condition not met"

[[record]]
compound = "C[C@@H]1C(=O)NCCN1C(=O)NC(c1ccc(OC(F)(F)F)c(F)c1)c1ccc(F)c(C(F)(F)F)n1 (single isomer, unassigned) [Example 56B]"
class = "condition met"

[[record]]
compound = "C[C@@H]1C(=O)NCCN1C(=O)NC(c1ccc(Cl)c(C(F)(F)F)n1)c1ccc(F)c(Cl)c1F (single isomer, unassigned) [Example 77B]"
class = "condition met"

[[record]]
compound = "O=C1CN(C(=O)NC(c2ccc(OCC(F)(F)F)nc2)c2ccc(F)c(Cl)c2F)CCN1 (single isomer, unassigned) [Example 8B]"
class = "condition not met"

[[record]]
compound = "C[C@@H]1C(=O)NCCN1C(=O)NC(c1cnc(C2CC2)c(Cl)c1)c1ccc(F)c(Cl)c1F (single isomer, unassigned) [Example 27A]"
class = "condition not met"

